Data provenance is ChEMBL document CHEMBL4689842.

system: U2OS; assay: Multiplex assay against U2OS; assay type: toxicity, cell-based; settings: human, 48 h, 1 µM, compound concentration 1 uM, replicate 2
RECORDED METRIC: Total Cell Count
Respond using a number only.

**Q:** // Total Cell Count lookup, key: `CCc1cccc(CC)c1NC(=O)c1nn(C)c2c1CCc1cnc(Nc3ccc(C(=O)NC4CCN(C)CC4)cc3OC(F)(F)F)nc1-2`
**A:** 49

---

test system: Fibroblast; assay: Multiplex assay against human fibroblast; assay type: toxicity, cell-based; settings: 12 h, 1 µM, compound concentration 1 uM, replicate 2
Binning rule for recorded Population Mitotic Cells (%): low: < 40%; medium: ≥ 40% and < 60%; high: ≥ 60%

Field: example entries. Status: answers known.
COMPOUND	GROUP
CCOc1cc(C(=O)N2CCC(N3CCN(C)CC3)CC2)ccc1Nc1ncc2c(n1)N(C1CCCC1)c1ccccc1C(=O)N2C	low
C=CCn1c(=O)c2cnc(Nc3ccc(N4CCN(C)CC4)cc3)nc2n1-c1cccc(C(C)(C)O)n1	medium
Cl.Oc1ccc2c3c1O[C@H]1c4[nH]c5c(c4C[C@@]4(O)[C@@H](C2)N(CC2CC2)CC[C@]314)C[C@@]1(O)[C@H]2Cc3ccc(O)c4c3[C@@]1(CCN2CC1CC1)[C@H]5O4	medium
O=C(Nc1ccc(Cl)cc1)Nc1cccc(-c2cccc(N3CCCC3)n2)c1	high
CCCS(=O)(=O)Nc1ccc(F)c(C(=O)c2c[nH]c3ncc(Cl)cc23)c1F	high
CN1CCC(=C2c3ccccc3CC(=O)c3sccc32)CC1.O=C(O)/C=C/C(=O)O [KETOTIFEN FUMARATE]	low
Cc1ccc2nc(NCCN)c3ncc(C)n3c2c1.O=C(O)C(F)(F)F.O=C(O)C(F)(F)F	medium
Cl.O=C(c1ccc(Nc2nccc(-c3cc4ccccc4s3)n2)cc1)N1CCC(N2CCCC2)CC1	medium

**Q:** Hey, which category is `CNc1cc(Oc2cc(C(=O)Nc3cc(N4CCN(C)CC4)cc(C(F)(F)F)c3)ccc2C)ncn1` in, do you know?
**A:** medium

**Q:** Hey, which category is `S=C(NCCCc1c[nH]cn1)NCCCN(Cc1ccc(Cl)c(Cl)c1)c1ccc(Br)cn1` in, do you know?
**A:** low

**Q:** Hey, which category is `O=C1NC(=O)C(c2cnc3ccccn23)=C1c1cn2c3c(cc(F)cc13)CN(C(=O)N1CCCCC1)CC2` in, do you know?
**A:** low
